We begin with a simple list: items and their reported protein stability index.
B1: PWWP2B (parent)
chain: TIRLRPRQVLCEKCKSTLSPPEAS

# Variants of: B1
# assayExplanation: protein stability index of a GFP-peptide fusion (GPS, HEK-293T) (PSI 1-6); higher = more stable;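 also: lentivirally expressed fusions sorted by FACS into six bins by GFP to DsRed ratio, PSI derived from sequencing read proportions per bin multiplied by bin number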
# conditionLabel: c terminus: a fixed tail appended
No unit in the answer, please; the number alone is enough.

Please review the entries below; each comes with its answer.
seqText	protein stability index
TIRLRPRQVLCEKIKSTLSPPEAS [C14I]	3.64
TIRLRPRQVLCEKCKSTLSPPEFS [A23F]	2.43

Query :: Return protein stability index (reported value) for this variant: TIRLRPRQVLCEKCKSTLSKPEAS [P20K]
Result :: 2.66

Query :: Return protein stability index (reported value) for this variant: TIRLRPRQVLCEKCKSTLSPPEAY [S24Y]
Result :: 2.89

Query :: Return protein stability index (reported value) for this variant: TIRLRPRQVLCEKCKSTLSPPECS [A23C]
Result :: 3.15

Query :: Return protein stability index (reported value) for this variant: TIRLRPRQVLHEKCKSTLSPPEAS [C11H]
Result :: 3.13
